# stated_conditions: human gut metagenome, 24 h, 2 µM; also: call rule not given here
measured_parameter: Bacterial Biotransformation

Answered examples (5):
# molecule, Bacterial Biotransformation
records = [
    ("CC(=O)O[C@]1(C(C)=O)CC[C@H]2[C@@H]3C=C(Cl)C4=CC(=O)[C@@H]5C[C@@H]5[C@]4(C)[C@H]3CC[C@@]21C [CYPROTERONE ACETATE]", "Compound metabolized"),
    ("COc1c2occc2cc2ccc(=O)oc12", "Compound metabolized"),
    ("CC(O)(CS(=O)(=O)c1ccc(F)cc1)C(=O)Nc1ccc(C#N)c(C(F)(F)F)c1 (stereo not drawn) [BICALUTAMIDE]", "Compound NOT metabolized"),
    ("CC(=O)OCC(=O)[C@@]1(O)[C@@H](C)C[C@H]2[C@@H]3CCC4=CC(=O)C=C[C@]4(C)[C@@]3(F)[C@@H](O)C[C@@]21C [BETAMETHASONE ACETATE]", "Compound metabolized"),
    ("OCCOCCN1CCN(C2=Nc3ccccc3Sc3ccccc32)CC1", "Compound metabolized"),
]

Prompt: // fetch Bacterial Biotransformation given entry CCN1CCCC1CNC(=O)c1cc(S(N)(=O)=O)ccc1OC (stereo not drawn) [SULPIRIDE]
Completion: Compound NOT metabolized

Prompt: Could you please provide reported Bacterial Biotransformation for N#Cc1ccc(C(c2ccc(C#N)cc2)n2cncn2)cc1 ? Thanks!
Completion: Compound NOT metabolized

Prompt: Please give measured Bacterial Biotransformation of the following entry: CN1C(=O)CC(C)(c2ccccc2)C1=O (stereo not drawn) [METHSUXIMIDE]
Completion: Compound NOT metabolized
